- target.or.system: STING (Homo sapiens, UniProt Q86WV6, G230A/H232R/R293Q/R71H)
- Sequence (Q86WV6 whole entry R71H/G230A/H232R/R293Q): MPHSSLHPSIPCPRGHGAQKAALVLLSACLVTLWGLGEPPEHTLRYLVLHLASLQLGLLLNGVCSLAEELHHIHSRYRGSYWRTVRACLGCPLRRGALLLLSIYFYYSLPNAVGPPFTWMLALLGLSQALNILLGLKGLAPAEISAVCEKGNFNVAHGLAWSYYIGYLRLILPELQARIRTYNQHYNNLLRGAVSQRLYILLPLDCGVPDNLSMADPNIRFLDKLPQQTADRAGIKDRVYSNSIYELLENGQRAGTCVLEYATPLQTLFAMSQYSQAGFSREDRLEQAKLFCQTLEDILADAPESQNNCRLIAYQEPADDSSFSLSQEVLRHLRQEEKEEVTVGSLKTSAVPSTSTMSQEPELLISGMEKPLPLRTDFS
- procedure.text: Reporter gene expression assay in THP1-Dual cells (IRF pathway Lucia luciferase, 2',3'-cGAMP stimulation)
- cond: 10 min preincubation, 5 μM 2',3'-cGAMP, 20 hr, IRF reporter QUANTI-Luc, read-out: THP-1 (HAQ) Activity
pIC50: −log10 of the molar value.
measurement.kind: pIC50

Some entries whose results are on file:
COC(=O)C(c1ccccc1)N1CCOc2ccc(NC(=O)Nc3ccc4cc[nH]c4c3)cc21 (stereo not shown) [Example 86] :: 5.00 to 6.00
O=C(Nc1ccc2c(c1)N(c1ccccc1)C(=O)CO2)Nc1ccc2cc[nH]c2c1 [Example 183] :: < 5.00
O=C(Nc1ccc2c(c1)OCC(=O)N2Cc1ccccc1-c1ccccc1)Nc1ccc2cc[nH]c2c1 [Example 101] :: ≥ 6.00

INPUT: # get_value(readout='pIC50', item= N#CC1COc2ccc(NC(=O)Nc3ccc4cc[nH]c4c3)cc2N1Cc1ccccc1 (stereo not shown) [Example 81] )
OUTPUT: 5.00 to 6.00

Source: patent US20230124361A1
